# Measurement Target: T1, CAPRIN-1 protein expressed on the membrane surface of human cancer cells (human, UniProt Q14444 2-709)
# T1 sequence (looked up): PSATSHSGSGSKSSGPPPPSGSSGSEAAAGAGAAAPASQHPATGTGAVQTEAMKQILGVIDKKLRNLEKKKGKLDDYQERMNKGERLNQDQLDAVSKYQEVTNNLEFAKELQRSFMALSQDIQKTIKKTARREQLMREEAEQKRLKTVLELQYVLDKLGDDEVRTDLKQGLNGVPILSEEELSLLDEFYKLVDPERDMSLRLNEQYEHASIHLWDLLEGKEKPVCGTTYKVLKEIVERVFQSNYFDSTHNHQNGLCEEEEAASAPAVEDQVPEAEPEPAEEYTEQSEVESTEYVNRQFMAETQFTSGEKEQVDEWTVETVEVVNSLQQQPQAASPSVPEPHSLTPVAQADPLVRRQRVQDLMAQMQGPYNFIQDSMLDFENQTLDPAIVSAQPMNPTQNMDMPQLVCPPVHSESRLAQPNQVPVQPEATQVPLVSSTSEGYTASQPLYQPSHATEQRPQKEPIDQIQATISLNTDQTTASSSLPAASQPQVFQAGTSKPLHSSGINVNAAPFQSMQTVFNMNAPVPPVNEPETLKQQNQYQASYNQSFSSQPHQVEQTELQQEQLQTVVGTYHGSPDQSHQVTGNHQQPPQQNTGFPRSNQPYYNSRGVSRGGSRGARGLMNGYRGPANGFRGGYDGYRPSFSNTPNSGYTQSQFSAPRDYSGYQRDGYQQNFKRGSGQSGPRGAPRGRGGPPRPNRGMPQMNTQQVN
# Experiment Description: cell-based or functional assay
Outcome Measure: ADCC cytotoxic activity (51Cr release) on OE33

Here's what some known entries look like.
Binder	Endpoint Result
humanized antibody #0 (antibody, V domains shown) VH: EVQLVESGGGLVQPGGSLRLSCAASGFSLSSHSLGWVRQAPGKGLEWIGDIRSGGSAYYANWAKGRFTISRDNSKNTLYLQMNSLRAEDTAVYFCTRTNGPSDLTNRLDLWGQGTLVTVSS VL: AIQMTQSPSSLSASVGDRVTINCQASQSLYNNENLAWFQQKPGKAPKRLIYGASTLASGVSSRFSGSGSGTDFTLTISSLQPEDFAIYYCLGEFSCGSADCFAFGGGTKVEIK	≥ 30%
humanized antibody #2 (antibody, V domains shown) VH: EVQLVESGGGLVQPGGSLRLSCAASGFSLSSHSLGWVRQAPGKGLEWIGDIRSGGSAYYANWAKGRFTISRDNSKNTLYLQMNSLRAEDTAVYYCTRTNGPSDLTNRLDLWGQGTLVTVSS VL: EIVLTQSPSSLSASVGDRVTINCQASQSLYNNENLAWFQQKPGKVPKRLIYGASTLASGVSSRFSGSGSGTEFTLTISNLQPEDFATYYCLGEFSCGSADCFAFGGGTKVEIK	≥ 33%

Alright, here's another binder for you.
// field: ADCC cytotoxic activity (51Cr release) on OE33; key: humanized antibody #5 (antibody, V domains shown) VH: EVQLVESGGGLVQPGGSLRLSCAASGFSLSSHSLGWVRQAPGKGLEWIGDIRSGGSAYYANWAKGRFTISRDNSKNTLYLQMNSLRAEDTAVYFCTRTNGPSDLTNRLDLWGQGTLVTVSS VL: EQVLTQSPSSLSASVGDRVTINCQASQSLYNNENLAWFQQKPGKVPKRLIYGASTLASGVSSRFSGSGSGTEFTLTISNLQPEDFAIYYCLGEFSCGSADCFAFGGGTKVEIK ; value = ≥ 33%

Entry source: patent US20160297889A1
